In this section, each of the binders is paired with its reported IC50.
molecular target: human IL-6R on CHO-K1 cells (clone HuIL6R 4D6) (human, UniProt P08887); experiment: FMAT competition; competitor Reference IgG-A647; CHO cells with human IL-6R
Record the value in nM, omitting the unit from your answer.

Documented IC50 of IL6RPMP103C4 (VHH) VHH: EVQLVESGGGLVEAGGSLRLSCAAAGRTLSSYSMAWFRQAPGKEREFVAIIRGNPSRTYHSDSVKGRFTASRDNAKNTVYLQMNRLEPEDTAVYYCAADPPPFASDYSAPQSYDYWGQGTQVTVSS : 37

Documented IC50 of Reference Fab (Fab, V domains shown) VH: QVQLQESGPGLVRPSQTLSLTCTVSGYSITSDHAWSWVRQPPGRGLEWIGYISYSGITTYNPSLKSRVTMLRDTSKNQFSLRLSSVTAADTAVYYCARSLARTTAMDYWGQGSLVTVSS VL: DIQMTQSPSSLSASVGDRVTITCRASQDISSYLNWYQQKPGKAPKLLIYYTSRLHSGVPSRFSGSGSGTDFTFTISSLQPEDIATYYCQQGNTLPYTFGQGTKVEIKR : 3.4

Documented IC50 of IL6RPMP120A5 (VHH) VHH: EVQLVESGGGLVQAGGSLSLSCATSGRTISDDTMAWFRQAPGKEREFVAIITFNGARTHYSDSVRDRFTISRDNAKNTVYLQMNSLKSEDTAVYYCAASTKYYSSTYNYIHPAFYDIWGQGTQVTVSS : 63
